# PROCEDURE_SUMMARY: In vivo evaluation for the percentage decrease in blood pressure at 45 umol/kg administered through oral route in spontaneously hypertensive rats and observed for 0-6 h
Here the recorded Decrease is given for each entry.
ASSAY_METRIC: Decrease (%)

In [3]: df
Out[3]:
                         compound_structure  numeric_value
0  COc1ccc([C@@H]2Cc3cc(Cl)ccc3N(CCN(C)C)C(=O)[C@@H]2C)cc1             12
1  COc1ccc([C@@H]2Cc3c(cccc3C(F)(F)F)N(CCN(C)C)C(=O)[C@@H]2Cc2ccccc2)cc1             14
2  COc1ccc([C@@H]2Cc3cc(C(F)(F)F)ccc3N(CCN(C)C)C(=O)[C@@H]2C)cc1.Cl             23
3  CC[C@H]1C(=O)N(CCN(C)C)c2cccc(C(F)(F)F)c2C[C@H]1c1ccc(OC)cc1.Cl             24
4  COc1ccc([C@@H]2Cc3ccccc3N(CCN(C)C)C(=O)[C@@H]2C)cc1.Cl              6
5  COc1ccc([C@@H]2Cc3c(OC)cccc3N(CCN(C)C)C(=O)[C@@H]2C)cc1.Cl              7
